Target: Cathepsin D (Cat D) (Homo sapiens, UniProt P07339)
Construct: Recombinant Cat D was expressed in CHO cells; made in house; host or cells: CHO cells
Sequence (P07339 65-412, species assumed): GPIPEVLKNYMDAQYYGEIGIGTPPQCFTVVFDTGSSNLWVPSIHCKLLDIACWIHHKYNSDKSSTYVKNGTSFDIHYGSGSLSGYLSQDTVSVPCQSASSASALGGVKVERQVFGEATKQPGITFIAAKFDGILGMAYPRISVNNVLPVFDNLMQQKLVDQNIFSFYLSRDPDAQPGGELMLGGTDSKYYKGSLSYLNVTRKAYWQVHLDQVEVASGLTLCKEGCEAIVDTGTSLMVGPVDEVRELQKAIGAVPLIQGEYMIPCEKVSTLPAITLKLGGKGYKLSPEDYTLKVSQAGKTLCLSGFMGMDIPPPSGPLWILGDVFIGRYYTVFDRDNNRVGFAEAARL
Test: In vitro enzymatic Cathepsin D (Cat D) FRET assay
Type: biochemical
Conditions: read-out: CatD IC50
Please respond with reported IC50 for every item in the list.
Only the number, expressed in µM, is required.

Exercise: Report IC50 for CC1(C)C(N)=N[C@@]2(c3cc(Nc4nccc5[nH]c(=O)cnc45)ccc3F)COC[C@H]2S1(=O)=O [Example 249] please.
Solution: 102

Exercise: Check C[C@]1(c2cc(NC(=O)c3ccc(Cl)cn3)ccc2F)N=C(N)C2(CC2)S(=O)(=O)[C@H]1F [Example 201] too.
Solution: 31.1

Exercise: Check Cc1cc(C(F)F)cnc1C(=O)Nc1ccc(F)c([C@@]2(C)N=C(N)C3(CCC3)S(=O)(=O)[C@@H]2F)c1 [Example 136] too.
Solution: 236

Exercise: Check CC1(C)C(N)=N[C@](C)(c2cc(OCc3ccccc3)ccc2F)CS1(=O)=O [Example 301] too.
Solution: 184

* * *

Please respond with reported IC50 for every item in the list.
Target: Cathepsin D (Cat D) (Homo sapiens, UniProt P07339)
Construct: Recombinant Cat D was expressed in CHO cells; made in house; host or cells: CHO cells
Experiment: In vitro enzymatic Cathepsin D (Cat D) FRET assay
Assay type: biochemical
Conditions: read-out: CatD IC50
Only the number, expressed in µM, is required.

Exercise: Report IC50 for CC1(C)C(N)=N[C@](C)(c2cc(Nc3nccc4nc(O)cnc34)cc(F)c2F)CS1(=O)=O please.
Solution: 45.2

Exercise: Check Cc1cc(OC(F)F)cnc1C(=O)Nc1cnc(F)c([C@]2(C)CS(=O)(=O)C3(CCC3)C(N)=N2)c1 too.
Solution: 139

Exercise: Check CC1(C)C(N)=N[C@](C)(c2cc(Oc3cc(C(F)(F)F)ccn3)ccc2F)CS1(=O)=O too.
Solution: 1050

Exercise: Check COc1cnc(C(=O)Nc2ccc(F)c([C@]3(C)CS(=O)(=O)C(C)(C)C(N)=N3)c2)c(C)c1 too.
Solution: 228

* * *

Target: Cathepsin D (Cat D) (Homo sapiens, UniProt P07339)
Construct: Recombinant Cat D was expressed in CHO cells; made in house; host or cells: CHO cells
Test: In vitro enzymatic Cathepsin D (Cat D) FRET assay
Type: biochemical
Conditions: read-out: CatD IC50
Please respond with reported IC50 for every item in the list.
Only the number, expressed in µM, is required.

Exercise: Report IC50 for CC1(C)C(N)=N[C@](C)(c2cc(NC(=O)c3ccc(Cl)cn3)c[nH]c2=O)CS1(=O)=O please.
Solution: 1870

Exercise: Check Cc1cc(OC(F)F)cnc1C(=O)Nc1cc([C@]2(C)CS(=O)(=O)C(C)(C)C(N)=N2)c(=O)n(C)c1 too.
Solution: 186

Exercise: Check C[C@]1(F)C(N)=N[C@](C)(c2cc(Nc3ncnc4cc(Cl)cnc34)ccc2F)CS1(=O)=O too.
Solution: 75.8

Exercise: Check CC1(C)C(N)=N[C@](C)(c2cc(Nc3ncnc4cc(Cl)cnc34)ccc2F)CS1(=O)=O too.
Solution: 36

Exercise: Check CC1(C)C(N)=N[C@](C)(c2cc(Oc3cc(-c4ccccc4)ccn3)ccc2F)CS1(=O)=O too.
Solution: 92.7

Exercise: Check CC1(C)C(N)=N[C@](C)(c2cc(NC(=O)c3ccc(C(F)F)cn3)ccc2F)CS1(=O)=O too.
Solution: 193

Exercise: Check CC1(C)C(N)=N[C@](C)(c2cc(NC(=O)c3ccc(Cl)cn3)cnc2F)CS1(=O)=O too.
Solution: 183
